system: HT29 colon; assay: NCI tumour cell line growth inhibition, 48 h; in the data active = GI50 below about 0.43 µM; inactive = the rest
Outcomes: True = active, False = inactive

[[record]]
chemical_structure = "Clc1ccc(N2CCN(CCCN3CCN(c4cccc(Cl)c4)CC3)CC2)cc1"
assayed_system = "HT29 colon"
category = "False"

[[record]]
chemical_structure = "CN1CCN(c2ccc(N3Cc4ccccc4OC4=C3C(=O)c3c(O)ccc(O)c3C4=O)cn2)CC1"
assayed_system = "HT29 colon"
category = "True"

[[record]]
chemical_structure = "CCc1c2c(nc3ccc(OC(=O)NCc4ccc(B5OC(C)(C)C(C)(C)O5)cc4)cc13)-c1cc3c(c(=O)n1C2)COC(=O)[C@]3(O)CC"
assayed_system = "HT29 colon"
category = "True"


* * *

system: NCI/ADR-RES ovarian; assay: NCI tumour cell line growth inhibition, 48 h; in the data active = GI50 below about 0.43 µM; inactive = the rest
Possible outcomes: Yes (active), No (inactive)

[[record]]
compound = "C[C@H](O)CNc1cc(-c2[nH]c3cccnc3c2-c2ccc(F)cc2)ccn1"
category = "No"

[[record]]
compound = "CSCCC(NC(=O)CNC(=O)C(CC(=O)O)NC(=O)C(NC(=O)C(NC(=O)C(NC(=O)CNC(=O)C(CCC(N)=O)NC(=O)C(CCSC)NC(=O)C(CC(=O)O)NC(=O)C(C)NC(=O)C(C)NC(=O)C(NC(=O)C(CO)NC(=O)C(N)CC(C)C)C(C)O)C(C)C)C(C)C)C(C)O)C(=O)NC(C)C(=O)NC(CO)C(=O)NCC(=O)NC(CC(C)C)C(=O)NC(CC(=O)O)C(=O)NC(CCCCN)C(=O)NC(CC(=O)O)C(=O)NC(Cc1ccc(O)cc1)C(=O)NC(CC(C)C)C(=O)NC(CCCCN)C(=O)N1CCCC1C(=O)NC(CC(=O)O)C(=O)NC(CC(=O)O)C(=O)O (stereo not given)"
category = "No"

[[record]]
compound = "COc1ccc2c(c1)CCC1C2CCC2(C)C3=CC(O)CCC3CC12 (stereo not given)"
category = "No"

[[record]]
compound = "CCc1c2c(nc3ccc(OC(=O)NCc4ccc(B5OC(C)(C)C(C)(C)O5)cc4)cc13)-c1cc3c(c(=O)n1C2)COC(=O)[C@]3(O)CC"
category = "Yes"

[[record]]
compound = "Clc1ccc(N2CCN(CCCN3CCN(c4cccc(Cl)c4)CC3)CC2)cc1"
category = "No"


* * *

compounds and their reported TGI
test system: SNB-75 CNS; assay: NCI tumour cell line growth inhibition, 48 h
Recorded metric: TGI

[[record]]
compound = "CSCCC(NC(=O)CNC(=O)C(CC(=O)O)NC(=O)C(NC(=O)C(NC(=O)C(NC(=O)CNC(=O)C(CCC(N)=O)NC(=O)C(CCSC)NC(=O)C(CC(=O)O)NC(=O)C(C)NC(=O)C(C)NC(=O)C(NC(=O)C(CO)NC(=O)C(N)CC(C)C)C(C)O)C(C)C)C(C)C)C(C)O)C(=O)NC(C)C(=O)NC(CO)C(=O)NCC(=O)NC(CC(C)C)C(=O)NC(CC(=O)O)C(=O)NC(CCCCN)C(=O)NC(CC(=O)O)C(=O)NC(Cc1ccc(O)cc1)C(=O)NC(CC(C)C)C(=O)NC(CCCCN)C(=O)N1CCCC1C(=O)NC(CC(=O)O)C(=O)NC(CC(=O)O)C(=O)O (stereo unspecified)"
recorded_metric = "TGI"
reported = "> 82.5 µM"

[[record]]
compound = "N#Cc1ccc(Oc2nc3ccccc3nc2C(=O)O)cc1"
recorded_metric = "TGI"
reported = "> 100 µM"

[[record]]
compound = "N/N=C(/Cc1ccccc1)NNC(N)=S"
recorded_metric = "TGI"
reported = "> 100 µM"

[[record]]
compound = "O=C(Nc1nc2ncn(CCNCCn3cnc4nc(NC(=O)c5ccccc5)[nH]c(=O)c43)c2c(=O)[nH]1)c1ccccc1"
recorded_metric = "TGI"
reported = "> 100 µM"

[[record]]
compound = "Cc1cc(C)c(C#N)c(SCC(=O)c2sc3c(C#N)c(C)cc(C)[n+]3c2[O-])n1"
recorded_metric = "TGI"
reported = "> 27.2 µM"

[[record]]
compound = "Cc1ccc(C(N)=Nc2ccccc2)cc1"
recorded_metric = "TGI"
reported = "> 100 µM"


* * *

The reader will find reported TGI values listed item by item below.
test system: SR leukemia; assay: NCI tumour cell line growth inhibition, 48 h
Where a SMILES comes first, the peptide text is derived from it. [ ]: non-standard residue; d: D form. The star is where a group is joined. Phe(4-NO2) = N[CH](Cc1ccc([N+](=O)[O-])cc1)C(=O)O; Boc = CC(C)(C)OC(=O)*; OtBu = CC(C)(C)O*
Recorded metric: TGI

[[record]]
compound = "CC1C2C=CC1C(c1c3ccc(=O)c(O)c-3oc3c(O)c(O)ccc13)C2C(=O)O (configuration not stated)"
assayed_system = "SR leukemia"
reported = "> 100 µM"

[[record]]
compound = "CC(C)(C)c1ccc2c(c1)C(O)(c1ccccc1)c1cc(C(C)(C)C)ccc1C2(O)C(F)(F)F (configuration not stated)"
assayed_system = "SR leukemia"
reported = "5.12 µM"

[[record]]
compound = "Cc1cc(C)c(C2CC(O)C(CO)O2)cc1C (configuration not stated)"
assayed_system = "SR leukemia"
reported = "> 100 µM"

[[record]]
compound = "CC(=O)N(C)c1ccc2ncccc2c1[N+](=O)[O-]"
assayed_system = "SR leukemia"
reported = "> 100 µM"

[[record]]
compound = "COc1ccc(NC(=S)N=Nc2c(O)[nH]c3ccccc23)cc1"
assayed_system = "SR leukemia"
reported = "> 100 µM"

[[record]]
compound = "CCc1nnc(CC)n1-n1c(Cc2ccccc2)n[nH]c1=O"
assayed_system = "SR leukemia"
reported = "> 100 µM"

[[record]]
compound = "N#Cc1c(-c2ccc(Cl)cc2)cc(-c2ccc(Nc3ccnc4cc(C(F)(F)F)ccc34)cc2)nc1N"
assayed_system = "SR leukemia"
reported = "16.4 µM"

[[record]]
compound = "CCCCCCCCCCCC1=NCCN1"
assayed_system = "SR leukemia"
reported = "48 µM"

[[record]]
compound = "NCCCCCCn1c2c(c3ccccc3c1=O)C(=O)c1ccccc1-2"
assayed_system = "SR leukemia"
reported = "2.09 µM"

[[record]]
compound = "CC(NC(=O)C(Cc1ccc(OC(=O)c2ccccc2)cc1)NC(=O)OC(C)(C)C)C(=O)NCC(=O)NC(Cc1ccccc1)NC(=O)OCc1ccccc1 (configuration not stated)"
assayed_system = "SR leukemia"
reported = "> 100 µM"

[[record]]
compound = "N#C/C(=C/c1ccco1)C(=O)c1ccccc1"
assayed_system = "SR leukemia"
reported = "> 100 µM"

[[record]]
compound = "CCN(CC)CCOc1nc2c3ccc(Cl)cc3nn2c2ccccc12"
assayed_system = "SR leukemia"
reported = "15.8 µM"

[[record]]
compound = "O=C(COc1cccc(/C=C2/Oc3ccccc3C2=O)c1)Nc1nccs1"
assayed_system = "SR leukemia"
reported = "15.9 µM"

[[record]]
compound = "CC(NNC(=S)N1CCCCCC1)c1cccnn1 (configuration not stated)"
assayed_system = "SR leukemia"
reported = "> 100 µM"

[[record]]
compound = "CSCCC(NC(=O)CNC(=O)C(CC(=O)O)NC(=O)C(NC(=O)C(NC(=O)C(NC(=O)CNC(=O)C(CCC(N)=O)NC(=O)C(CCSC)NC(=O)C(CC(=O)O)NC(=O)C(C)NC(=O)C(C)NC(=O)C(NC(=O)C(CO)NC(=O)C(N)CC(C)C)C(C)O)C(C)C)C(C)C)C(C)O)C(=O)NC(C)C(=O)NC(CO)C(=O)NCC(=O)NC(CC(C)C)C(=O)NC(CC(=O)O)C(=O)NC(CCCCN)C(=O)NC(CC(=O)O)C(=O)NC(Cc1ccc(O)cc1)C(=O)NC(CC(C)C)C(=O)NC(CCCCN)C(=O)N1CCCC1C(=O)NC(CC(=O)O)C(=O)NC(CC(=O)O)C(=O)O (configuration not stated)"
assayed_system = "SR leukemia"
reported = "> 82.5 µM"

[[record]]
compound = "C=CCCCC(C#N)(c1ccccc1)N1CCCC1 (configuration not stated)"
assayed_system = "SR leukemia"
reported = "> 100 µM"

[[record]]
compound = "NC(=O)NC(=O)c1cccc(NC(=O)CI)c1"
assayed_system = "SR leukemia"
reported = "0.416 µM"

[[record]]
compound = "COP1(=O)OCc2cnccc2O1 (configuration not stated)"
assayed_system = "SR leukemia"
reported = "> 100 µM"

[[record]]
compound = "N#CC(C#N)N=Nc1ccc(-c2nc3ccccc3[nH]2)cc1"
assayed_system = "SR leukemia"
reported = "> 100 µM"

[[record]]
compound = "O=C1c2ccccc2C(=O)c2c1ccc(C(Br)Br)c2Cl"
assayed_system = "SR leukemia"
reported = "4.33 µM"

[[record]]
compound = "Cn1c2c(c3ccccc31)C1C(=O)N(c3ccccc3)C(=O)C1CC2 (configuration not stated)"
assayed_system = "SR leukemia"
reported = "> 303 µM"

[[record]]
compound = "N#Cc1c2nc3ccccc3nc2n2ccccc12"
assayed_system = "SR leukemia"
reported = "> 100 µM"

[[record]]
compound = "OCC#Cc1ccccc1C#CCCCCCCC#Cc1ccccc1C#CCO"
assayed_system = "SR leukemia"
reported = "34.6 µM"

[[record]]
compound = "CCCCCCCCCCCCCCCCCCNc1ccn(C2OC(CO)C(OP(=O)(O)OCC(COP(=O)(O)OCC3OC(n4cc(F)c(NCCCCCCCCCCCCCCCCCC)nc4=O)CC3O)OC(=O)CCCCCCCCCCCCCCC)C2O)c(=O)n1 (configuration not stated)"
assayed_system = "SR leukemia"
reported = "> 100 µM"

[[record]]
compound = "Cc1ccc(-c2cc3c(NC(=O)C4CC4)ncnc3o2)cc1"
assayed_system = "SR leukemia"
reported = "> 25 µM"

[[record]]
compound = "CCOC(=O)c1sc2nc(SC)nc(N3CCCCC3)c2c1N"
assayed_system = "SR leukemia"
reported = "> 100 µM"

[[record]]
compound = "CC(C)=CCC/C(C)=C\\CC/C(C)=C/CO"
assayed_system = "SR leukemia"
reported = "47.6 µM"

[[record]]
compound = "Nc1nc(=S)c2c(ncn2CC(O)CO)[nH]1 (configuration not stated)"
assayed_system = "SR leukemia"
reported = "> 100 µM"

[[record]]
compound = "CC(=O)NC(CCC(=O)OC(C)(C)C)C(=O)NC(CCC(=O)OC(C)(C)C)C(=O)NC(Cc1ccc([N+](=O)[O-])cc1)C(=O)NC(CCCCNC(=O)OC(C)(C)C)C(=O)NC(CCCCNC(=O)OC(C)(C)C)C(=O)NCC(=O)O (configuration not stated) (Ac-E(OtBu)E(OtBu)[Phe(4-NO2)]K(Boc)K(Boc)G-OH; configuration not given here)"
assayed_system = "SR leukemia"
reported = "> 100 µM"

[[record]]
compound = "CC(C)OC(=O)c1ccc(CCc2cc(O)c(Br)cc2O)cc1"
assayed_system = "SR leukemia"
reported = "64.9 µM"

[[record]]
compound = "CC1=c2c(oc3cc(O)c(Nc4c(C)cc(O)cc4O)c(C)c23)=CC(=O)C1=Nc1c(C)cc(O)cc1O"
assayed_system = "SR leukemia"
reported = "> 100 µM"

[[record]]
compound = "COc1ccc(C(=O)N/N=C2\\C(=O)c3c(C)cc(C)cc3CC2(C)C)cc1"
assayed_system = "SR leukemia"
reported = "47.9 µM"

[[record]]
compound = "COc1ccc2nccc(NCCCN3CCN(CCCNc4ccnc5ccc(OC)cc45)CC3)c2c1"
assayed_system = "SR leukemia"
reported = "> 26.2 µM"

[[record]]
compound = "Cc1occc(=O)c1O"
assayed_system = "SR leukemia"
reported = "> 100 µM"

[[record]]
compound = "Brc1ccc2[nH]cc([C@H]3CN[C@@H](c4c[nH]c5ccc(Br)cc45)CN3)c2c1"
assayed_system = "SR leukemia"
reported = "5.2 µM"

[[record]]
compound = "CC[N+](CC)(CC)Cc1cc2ccccc2n1C(=O)OC"
assayed_system = "SR leukemia"
reported = "> 100 µM"

[[record]]
compound = "Cc1ccc(C(N)=Nc2ccccc2)cc1"
assayed_system = "SR leukemia"
reported = "> 100 µM"

